The measured values listed here are drawn from ChEMBL document CHEMBL1152487.

pIC50 by entry:
Assay: Inhibition of HDAC
pIC50: −log10 of the molar value.
Value kind: pIC50

Chemical string	Value kind	Recorded number
O=C(CCc1ccc(NS(=O)(=O)c2ccccc2)cc1)NO	pIC50	7.00
COc1ccc(S(=O)(=O)Nc2ccc(/C=C/C(=O)NO)cc2)cc1	pIC50	7.22
O=C(CCCCCN1C(=O)c2ccccc2C1=O)NO	pIC50	6.99
Cn1cc(C=O)cc1CCC(=O)NO	pIC50	4.28
Cc1ccc(S(=O)(=O)Nc2ccc(/C=C/C(=O)NO)cc2)cc1	pIC50	6.52
O=C(/C=C/c1ccc(NS(=O)(=O)c2ccc(Cl)cc2Cl)cc1)NO	pIC50	6.52
Cn1cc(C(=O)Cl)cc1/C=C/C(=O)NO	pIC50	5.02
O=C(Cc1ccc(NS(=O)(=O)c2ccccc2)cc1)NO	pIC50	6.00
CC(=O)c1cc(/C=C/C(=O)NO)n(C)c1	pIC50	4.95
O=C(/C=C/c1ccc(NS(=O)(=O)c2ccc(Cl)c(Cl)c2)cc1)NO	pIC50	7.00
Cn1cc(C=O)cc1/C=C/C(=O)NO	pIC50	4.91
